# method description: Tmax in Sprague-Dawley rat at 20 mg/kg, po measured up to 12 hrs by LC-MS/MS analysis
# Assay type: ADME, organism-based
# reported conditions: in vivo
measurement type: Tmax

[[record]]
input_smiles = "CCCNNC(=O)c1ccc(CNC(=O)c2ncc(CNc3ccccc3)s2)cc1"
result_value = "30 min"


---

# method description: MRT (0 to infinity) in Sprague-Dawley rat at 20 mg/kg, po measured up to 12 hrs by LC-MS/MS analysis
# Type: ADME, organism-based
# reported conditions: in vivo
measurement type: MRT inf (h)

[[record]]
input_smiles = "CCCNNC(=O)c1ccc(CNC(=O)c2ncc(CNc3ccccc3)s2)cc1"
result_value = 4.48


---

# method description: Half life in Sprague-Dawley rat at 20 mg/kg, po measured up to 12 hrs by LC-MS/MS analysis
# Type: ADME, organism-based
# reported conditions: in vivo
measurement type: half-life (h)

[[record]]
input_smiles = "CCCNNC(=O)c1ccc(CNC(=O)c2ncc(CNc3ccccc3)s2)cc1"
result_value = 3.6


---

# method description: Metabolic stability in mouse liver microsome assessed as parent compound remaining measured at 5 mins
# Assay type: ADME
# reported conditions: liver microsomes, read-out: Stability
measurement type: remaining at 5 min (%)

[[record]]
input_smiles = "CCCNNC(=O)c1ccc(CNC(=O)c2ncc(CNc3ccccc3)s2)cc1"
result_value = 70.4


---

# tested on: Protein deacetylase HDAC6 (Homo sapiens)
# Sequence (Q9UBN7 whole entry): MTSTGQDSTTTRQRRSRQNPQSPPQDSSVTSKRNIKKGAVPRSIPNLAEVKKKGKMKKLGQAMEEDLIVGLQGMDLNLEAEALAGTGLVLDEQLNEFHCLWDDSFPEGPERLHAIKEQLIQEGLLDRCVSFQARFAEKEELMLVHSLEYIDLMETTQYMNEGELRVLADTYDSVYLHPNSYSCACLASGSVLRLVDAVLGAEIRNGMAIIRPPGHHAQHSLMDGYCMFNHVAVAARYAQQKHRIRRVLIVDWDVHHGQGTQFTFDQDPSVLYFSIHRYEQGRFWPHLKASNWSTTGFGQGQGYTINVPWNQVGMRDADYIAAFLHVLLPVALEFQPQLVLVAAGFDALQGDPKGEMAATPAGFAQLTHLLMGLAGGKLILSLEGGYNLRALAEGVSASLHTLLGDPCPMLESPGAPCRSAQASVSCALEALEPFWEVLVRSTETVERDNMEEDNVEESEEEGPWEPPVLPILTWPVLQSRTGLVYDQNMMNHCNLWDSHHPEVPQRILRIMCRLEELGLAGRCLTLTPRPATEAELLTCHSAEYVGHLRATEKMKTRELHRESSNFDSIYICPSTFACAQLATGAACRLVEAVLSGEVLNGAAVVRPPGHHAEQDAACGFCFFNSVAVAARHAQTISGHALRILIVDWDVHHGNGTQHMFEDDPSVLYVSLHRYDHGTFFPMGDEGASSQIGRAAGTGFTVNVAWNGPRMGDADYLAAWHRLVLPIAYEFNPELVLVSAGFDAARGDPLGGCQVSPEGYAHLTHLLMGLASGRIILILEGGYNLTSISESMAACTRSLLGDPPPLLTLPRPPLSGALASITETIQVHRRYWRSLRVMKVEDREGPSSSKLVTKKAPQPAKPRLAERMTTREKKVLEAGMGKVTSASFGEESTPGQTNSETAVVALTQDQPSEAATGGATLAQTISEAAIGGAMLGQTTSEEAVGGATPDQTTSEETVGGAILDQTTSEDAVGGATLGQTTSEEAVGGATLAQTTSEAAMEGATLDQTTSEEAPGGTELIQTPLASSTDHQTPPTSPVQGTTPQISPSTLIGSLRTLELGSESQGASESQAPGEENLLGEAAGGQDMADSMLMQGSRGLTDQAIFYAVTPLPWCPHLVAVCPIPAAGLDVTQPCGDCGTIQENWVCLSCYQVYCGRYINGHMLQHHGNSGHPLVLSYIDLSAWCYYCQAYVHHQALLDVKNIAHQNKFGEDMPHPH
# method description: Inhibition of human recombinant HDAC6 using Ac-Leu-Gly-Lys (Ac)-AMC as substrate preincubated with compound for 10 mins followed by substrate addition and measured after 45 mins by TECAN microtiter plate reader analysis
Reported values of IC50 for individual entries
measurement type: IC50 (µM)

[[record]]
input_smiles = "CCCNNC(=O)c1ccc(CNC(=O)c2ncc(CNc3ccccc3)s2)cc1"
comparative_sign = ">"
result_value = 10

[[record]]
input_smiles = "Nc1ccccc1NC(=O)c1ccc(NC(=O)c2ccc(-c3ncc(CNc4ccccc4)s3)cc2)cc1"
comparative_sign = "="
result_value = 9.1

[[record]]
input_smiles = "Nc1ccccc1NC(=O)/C=C/c1ccc(CNC(=O)c2ccc(-c3ncc(CNc4ccccc4)s3)cc2)cc1"
comparative_sign = ">"
result_value = 10

[[record]]
input_smiles = "Nc1ccccc1NC(=O)c1ccc(CNC(=O)c2ccc(-c3ncc(CNc4ccccc4)s3)cc2)cc1"
comparative_sign = "="
result_value = 8.31

[[record]]
input_smiles = "Nc1ccccc1NC(=O)c1ccc(-c2ncc(CNc3ccccc3)s2)cc1"
comparative_sign = ">"
result_value = 10

[[record]]
input_smiles = "Nc1ccccc1NC(=O)c1ccc(CNC(=O)c2ncc(CNc3ccccc3)s2)cc1"
comparative_sign = ">"
result_value = 10

[[record]]
input_smiles = "Nc1ccccc1NC(=O)CCCCCC(=O)Nc1ccc(-c2ncc(CNc3ccccc3)s2)cc1"
comparative_sign = "="
result_value = 7.72

[[record]]
input_smiles = "Nc1ccccc1NC(=O)/C=C/c1ccc(-c2ncc(CNc3ccccc3)s2)cc1"
comparative_sign = "="
result_value = 8.01


---

# method description: Metabolic stability in mouse liver microsome assessed as intrinsic clearance
# Format: ADME
# reported conditions: liver microsomes, read-out: CLH
measurement type: CLint scaled (mL/min/kg)

[[record]]
input_smiles = "CCCNNC(=O)c1ccc(CNC(=O)c2ncc(CNc3ccccc3)s2)cc1"
measurement_type = "CLint scaled"
result_value = 563


---

# method description: Metabolic stability in rat liver microsome assessed as parent compound remaining measured at 45 mins
# Assay type: ADME
# reported conditions: liver microsomes, read-out: Stability
measurement type: remaining at 0.75 h (%)

[[record]]
input_smiles = "CCCNNC(=O)c1ccc(CNC(=O)c2ncc(CNc3ccccc3)s2)cc1"
result_value = 25.4


---

# method description: MRT (0 to infinity) in Sprague-Dawley rat at 2 mg/kg, iv measured up to 12 hrs by LC-MS/MS analysis
# Type: ADME, organism-based
# reported conditions: in vivo
measurement type: MRT inf (min)

[[record]]
input_smiles = "CCCNNC(=O)c1ccc(CNC(=O)c2ncc(CNc3ccccc3)s2)cc1"
output_unit = "min"
result_value = 33


---

# method description: Metabolic stability in rat liver microsome assessed as parent compound remaining measured at 15 mins
# Type: ADME
# reported conditions: liver microsomes, read-out: Stability
measurement type: remaining at 0.25 h (%)

[[record]]
input_smiles = "CCCNNC(=O)c1ccc(CNC(=O)c2ncc(CNc3ccccc3)s2)cc1"
result_value = 57.5


---

# method description: Metabolic stability in rat liver microsome assessed as parent compound remaining measured immediately
# Format: ADME
# reported conditions: liver microsomes, read-out: Stability
measurement type: remaining at 0 min (%)

[[record]]
input_smiles = "CCCNNC(=O)c1ccc(CNC(=O)c2ncc(CNc3ccccc3)s2)cc1"
measurement_type = "remaining at 0 min"
output_unit = "%"
result_value = 100


---

# method description: Oral bioavailability in Sprague-Dawley rat at 20 mg/kg measured up to 12 hrs by LC-MS/MS analysis
# Format: ADME, organism-based
# reported conditions: in vivo
measurement type: bioavailability (%)

[[record]]
input_smiles = "CCCNNC(=O)c1ccc(CNC(=O)c2ncc(CNc3ccccc3)s2)cc1"
measurement_type = "bioavailability"
output_unit = "%"
result_value = 57


---

# method description: Cmax in Sprague-Dawley rat at 20 mg/kg, po measured up to 12 hrs by LC-MS/MS analysis
# Format: ADME, organism-based
# reported conditions: in vivo
measurement type: Cmax (ng/mL)

[[record]]
input_smiles = "CCCNNC(=O)c1ccc(CNC(=O)c2ncc(CNc3ccccc3)s2)cc1"
result_value = 1040


---

# method description: Clearance in Sprague-Dawley rat at 20 mg/kg, po measured up to 12 hrs by LC-MS/MS analysis
# Assay type: ADME, organism-based
# reported conditions: in vivo
measurement type: CL/F (mL/min/kg)

[[record]]
input_smiles = "CCCNNC(=O)c1ccc(CNC(=O)c2ncc(CNc3ccccc3)s2)cc1"
measurement_type = "CL/F"
result_value = 121


---

# method description: Acute toxicity in po dosed C57BL/6J mouse assessed as lethal dose administered for 14 days
# Type: organism-based
# reported conditions: in vivo, time 14 day
measurement type: LD50 at 336 h

[[record]]
input_smiles = "CCCNNC(=O)c1ccc(CNC(=O)c2ncc(CNc3ccccc3)s2)cc1"
result_value = "> 1000 mg/kg"

